# Measurement target: hA2BAR (Homo sapiens, UniProt P29275)
# Construct: host or cells: HEK-293 (HEK-293-A2B) cell membranes
# Sequence (P29275 whole entry): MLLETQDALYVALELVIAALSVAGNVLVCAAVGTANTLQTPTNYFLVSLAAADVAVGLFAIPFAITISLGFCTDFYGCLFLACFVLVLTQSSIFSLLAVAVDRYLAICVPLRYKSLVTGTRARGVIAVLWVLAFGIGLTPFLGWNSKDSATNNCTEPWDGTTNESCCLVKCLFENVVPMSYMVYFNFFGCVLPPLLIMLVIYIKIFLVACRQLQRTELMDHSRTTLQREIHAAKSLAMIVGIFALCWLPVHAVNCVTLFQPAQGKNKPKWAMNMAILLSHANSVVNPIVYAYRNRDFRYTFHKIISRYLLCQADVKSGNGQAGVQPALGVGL
# Method notes: Radioligand binding competition, [3H]DPCPX, membranes from HEK-293-A2B cells
# Measurement setup: 1 μM, [3H]DPCPX, human HEK-293 cells, n = 2
Output class 1 for records whose % at 1 μM hA2B (percentage displacement of specific binding) is lower than 30%, class 0 for records at or above 30%.

In: Problem: For the molecule CCOC(=O)C1=C(C)Nc2nc3ccc(Br)cc3n2C1c1ccsc1 (stereo not shown) [15w] , is % at 1 μM hA2B (percentage displacement of specific binding) under 30%?
Out: class 0

In: Problem: For the molecule CC1=C(C(=O)OC(C)C)C(c2ccsc2)n2c(nc3cc(Br)c(Br)cc32)N1 (stereo not shown) [14x] , is % at 1 μM hA2B (percentage displacement of specific binding) under 30%?
Out: class 1

In: Problem: For the molecule CCOC(=O)C1=C(C)Nc2nc3ccc(Br)cc3n2C1c1cccs1 (stereo not shown) [15u] , is % at 1 μM hA2B (percentage displacement of specific binding) under 30%?
Out: class 1

In: Problem: For the molecule CC1=C(C(=O)OC(C)C)C(c2ccoc2)n2c(nc3ccc(Br)cc32)N1 (stereo not shown) [15t] , is % at 1 μM hA2B (percentage displacement of specific binding) under 30%?
Out: class 1

In: Problem: For the molecule CC1=C(C(=O)OC(C)C)C(c2ccsc2)n2c(nc3cc(F)c(F)cc32)N1 (stereo not shown) [14h] , is % at 1 μM hA2B (percentage displacement of specific binding) under 30%?
Out: class 0

In: Problem: For the molecule CCOC(=O)C1=C(C)Nc2nc3cc(Br)ccc3n2[C@H]1c1ccoc1 [(S)-16s] , is % at 1 μM hA2B (percentage displacement of specific binding) under 30%?
Out: class 0

In: Problem: For the molecule CCOC(=O)C1=C(C)Nc2nc3ccc(Cl)cc3n2C1c1ccsc1 (stereo not shown) [15o] , is % at 1 μM hA2B (percentage displacement of specific binding) under 30%?
Out: class 0

In: Problem: For the molecule CCOC(=O)C1=C(C)Nc2nc3cc(Br)c(Br)cc3n2C1c1ccsc1 (stereo not shown) [14w] , is % at 1 μM hA2B (percentage displacement of specific binding) under 30%?
Out: class 0

In: Problem: For the molecule CCOC(=O)C1=C(C)Nc2nc3cc(Cl)c(Cl)cc3n2C1c1ccsc1 (stereo not shown) [14o] , is % at 1 μM hA2B (percentage displacement of specific binding) under 30%?
Out: class 1

In: Problem: For the molecule CC1=C(C(=O)OC(C)C)[C@H](c2ccoc2)n2c(nc3cc(Cl)ccc32)N1 [(S)-16l] , is % at 1 μM hA2B (percentage displacement of specific binding) under 30%?
Out: class 0

In: Problem: For the molecule CC1=C(C(=O)OC(C)C)C(c2cccs2)n2c(nc3cc(F)c(F)cc32)N1 (stereo not shown) [14f] , is % at 1 μM hA2B (percentage displacement of specific binding) under 30%?
Out: class 1

In: Problem: For the molecule CCOC(=O)C1=C(C)Nc2nc3ccc(Br)cc3n2C1c1ccco1 (stereo not shown) [15q] , is % at 1 μM hA2B (percentage displacement of specific binding) under 30%?
Out: class 0

In: Problem: For the molecule CC1=C(C(=O)OC(C)C)C(c2ccoc2)n2c(nc3cc(Br)c(Br)cc32)N1 (stereo not shown) [14t] , is % at 1 μM hA2B (percentage displacement of specific binding) under 30%?
Out: class 0

In: Problem: For the molecule CCOC(=O)C1=C(C)Nc2nc3ccc(Cl)cc3n2C1c1ccco1 (stereo not shown) [15i] , is % at 1 μM hA2B (percentage displacement of specific binding) under 30%?
Out: class 1

In: Problem: For the molecule CC1=C(C(=O)OC(C)C)[C@H](c2ccco2)n2c(nc3cc(Br)ccc32)N1 [(R)-16r] , is % at 1 μM hA2B (percentage displacement of specific binding) under 30%?
Out: class 0

In: Problem: For the molecule CCOC(=O)C1=C(C)Nc2nc3cc(Br)c(Br)cc3n2C1c1cccs1 (stereo not shown) [14u] , is % at 1 μM hA2B (percentage displacement of specific binding) under 30%?
Out: class 1

In: Problem: For the molecule CC1=C(C(=O)OC(C)C)C(c2cccs2)n2c(nc3ccc(Br)cc32)N1 (stereo not shown) [15v] , is % at 1 μM hA2B (percentage displacement of specific binding) under 30%?
Out: class 1

In: Problem: For the molecule CC1=C(C(=O)OC(C)C)C(c2cccs2)n2c(nc3cc(Br)c(Br)cc32)N1 (stereo not shown) [14v] , is % at 1 μM hA2B (percentage displacement of specific binding) under 30%?
Out: class 1

In: Problem: For the molecule CCOC(=O)C1=C(C)Nc2nc3cc(Cl)ccc3n2[C@H]1c1cocn1 [(R)-18c] , is % at 1 μM hA2B (percentage displacement of specific binding) under 30%?
Out: class 1
